- experiment.description: Quantitative High-Throughput drug screen in 47 multiple myeloma cell lines against the NCATS MIPE library collection: EJM_DSMZ cell viability assay (AID 1918926; also: nearly all actives have a fitted effect of over 30% in size)
- test.conditions: EJM myeloma cell viability, CellTiter-Glo ATP, 48 h; series mostly up to 45.8 µM
Records with an inconclusive call do not appear. Activity calls are given as the source filed them. Calls follow the shape of the dose curve; as a rule, active = well fitted cell-killing curve with a large enough effect; inconclusive = small, poorly fitted or top-dose-only effect, or effect the other way; inactive = no such curve, though single readings can be large or run the other way.
Possible outcomes: label 1 (active), label 0 (inactive)

sample.smiles	classification
Cc1nc2ccc(CN(C)c3ccc(C(=O)N[C@@H](CCC(=O)O)C(=O)O)s3)cc2c(=O)[nH]1	label 0
CC[C@@]1(O)C(=O)OCc2c1cc1n(c2=O)Cc2cc3cc(O)ccc3nc2-1	label 1
Cn1c2ccccc2c2c3c(c4c5ccccc5n(CCC#N)c4c21)CNC3=O	label 1
COC(=O)[C@]12CCC(C)(C)C[C@@H]1[C@@H]1C(=O)C=C3[C@@]4(C)C=C(C#N)C(=O)C(C)(C)[C@@H]4CC[C@@]3(C)[C@]1(C)CC2	label 1
